Where these numbers come from: ChEMBL document CHEMBL4602632

I'd appreciate it if you could supply log10 of MIC values for the items below.
System: Mycobacterium tuberculosis
Experiment: Antimycobacterial activity against Mycobacterium tuberculosis 73A harbouring KatG Ser315Thr mutant and wild type InhA assessed as reduction in bacterial growth incubated for 7 days by resazurin dye based assay
Type: functional
Each number you see is log10 of MIC, and the unit inside the log is µM.

In: Can you look up log10 of MIC on Mycobacterium tuberculosis for `NNC(=O)c1ccncc1` ?
Out: 0.60

In: Now this one: `COC(=O)c1cc2c([nH]c3ccccc32)c(-c2ccc(N(C)C)cc2)n1`
Out: 1.96

In: Now this one: `O=C(NN1C(=O)c2ccccc2C1=O)c1cc2c([nH]c3ccccc32)c(-c2ccccc2)n1`
Out: 2.16

In: Now this one: `O=C(NN1C(=O)c2ccccc2C1=O)c1cc2c([nH]c3ccccc32)c(-c2cccc([N+](=O)[O-])c2)n1`
Out: 2.42

In: Now this one: `O=C(NN1C(=O)CCC1=O)c1cc2c([nH]c3ccccc32)c(-c2ccc(F)cc2)n1`
Out: 1.89

In: Now this one: `O=C(NN1C(=O)c2ccccc2C1=O)c1cc2c([nH]c3ccccc32)c(-c2ccc(F)cc2)n1`
Out: 2.14

###

I'd appreciate it if you could supply MIC values for the items below.
Test system: Mycobacterium tuberculosis
Experiment: Antimycobacterial activity against Mycobacterium tuberculosis BRF16 harbouring KatG Ser315Thr mutant and wild type InhA assessed as reduction in bacterial growth incubated for 7 days by resazurin dye based assay
Assay type: functional

In: Can you look up MIC on Mycobacterium tuberculosis for `O=C(NN1C(=O)CCC1=O)c1cc2c([nH]c3ccccc32)c(-c2ccc(F)cc2)n1` ?
Out: 62.5 µg/mL

In: Now this one: `O=C(NN1C(=O)c2ccccc2C1=O)c1cc2c([nH]c3ccccc32)c(-c2cccc([N+](=O)[O-])c2)n1`
Out: 261.99 µM

In: Now this one: NNC(=O)c1ccncc1 [ISONIAZID]
Out: 8 µM

In: Now this one: `COC(=O)c1cc2c([nH]c3ccccc32)c(-c2ccc(N(C)C)cc2)n1`
Out: 362.16 µM

In: Now this one: `O=C(NN1C(=O)c2ccccc2C1=O)c1cc2c([nH]c3ccccc32)c(-c2ccc(F)cc2)n1`
Out: 138.85 µM

In: Now this one: `O=C(NN1C(=O)c2ccccc2C1=O)c1cc2c([nH]c3ccccc32)c(-c2ccccc2)n1`
Out: 289.27 µM
